target: DOT1L (Homo sapiens); construct: purchased Reaction Biology; assay: Radioisotope-based methyltransferase assay (selectivity); assay type: biochemical; conditions: RK-701 in duplicate
Sequence (Q8TEK3 whole entry): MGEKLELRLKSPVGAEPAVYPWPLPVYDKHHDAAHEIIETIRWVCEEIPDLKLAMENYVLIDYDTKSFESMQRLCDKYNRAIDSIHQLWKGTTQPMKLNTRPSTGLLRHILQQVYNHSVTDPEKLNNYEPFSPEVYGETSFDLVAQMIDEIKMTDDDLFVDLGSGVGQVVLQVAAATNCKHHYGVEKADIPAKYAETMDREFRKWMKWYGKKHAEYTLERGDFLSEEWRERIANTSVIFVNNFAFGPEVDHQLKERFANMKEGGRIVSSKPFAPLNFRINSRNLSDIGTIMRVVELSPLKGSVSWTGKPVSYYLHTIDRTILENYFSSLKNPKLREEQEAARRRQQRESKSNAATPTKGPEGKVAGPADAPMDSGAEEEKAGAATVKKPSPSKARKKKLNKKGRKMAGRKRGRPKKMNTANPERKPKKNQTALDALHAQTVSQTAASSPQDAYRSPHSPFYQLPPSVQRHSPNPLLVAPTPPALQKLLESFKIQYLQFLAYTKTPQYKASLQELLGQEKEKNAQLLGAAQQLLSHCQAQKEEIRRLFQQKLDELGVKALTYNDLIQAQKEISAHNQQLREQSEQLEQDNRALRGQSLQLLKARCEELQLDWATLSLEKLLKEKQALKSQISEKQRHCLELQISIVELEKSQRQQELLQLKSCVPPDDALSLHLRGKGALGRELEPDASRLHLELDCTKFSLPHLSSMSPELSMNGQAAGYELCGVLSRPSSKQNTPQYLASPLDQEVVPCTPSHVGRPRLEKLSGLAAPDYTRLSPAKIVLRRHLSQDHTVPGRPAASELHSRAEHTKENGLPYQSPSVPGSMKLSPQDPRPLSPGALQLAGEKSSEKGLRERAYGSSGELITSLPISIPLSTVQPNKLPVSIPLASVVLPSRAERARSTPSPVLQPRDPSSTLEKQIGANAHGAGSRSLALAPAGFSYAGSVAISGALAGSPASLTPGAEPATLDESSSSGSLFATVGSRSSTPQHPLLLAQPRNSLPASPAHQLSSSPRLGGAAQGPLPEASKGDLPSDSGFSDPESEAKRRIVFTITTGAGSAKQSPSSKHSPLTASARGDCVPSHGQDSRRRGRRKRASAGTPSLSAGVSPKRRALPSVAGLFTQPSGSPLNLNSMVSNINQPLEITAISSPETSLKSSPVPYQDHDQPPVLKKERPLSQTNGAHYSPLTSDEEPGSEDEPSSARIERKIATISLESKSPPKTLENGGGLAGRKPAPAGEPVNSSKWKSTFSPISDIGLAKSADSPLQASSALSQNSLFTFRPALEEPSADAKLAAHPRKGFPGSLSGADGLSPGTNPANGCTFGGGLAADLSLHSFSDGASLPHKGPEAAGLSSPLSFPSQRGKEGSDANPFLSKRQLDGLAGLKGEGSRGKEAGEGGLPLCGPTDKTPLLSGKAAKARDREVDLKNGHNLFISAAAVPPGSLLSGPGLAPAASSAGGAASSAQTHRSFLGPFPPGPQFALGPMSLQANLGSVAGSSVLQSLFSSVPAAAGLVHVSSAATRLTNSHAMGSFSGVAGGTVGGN
pIC50: −log10 of the molar value.

COMPOUND | pIC50
Cc1c(C(=O)NC(CCC2CC2)C(=O)Nc2ccc(C#N)cc2)[nH]c2c1C(=O)CC(C)(C)C2 (stereo not shown) | < 4.00

###

assay: Liver microsomal stability assay, monkey; format: in vitro ADME; conditions: monkey, liver microsomes, Metabolic stability, % remaining of RK-701, Monkey; Time 30; replicate values
QUANTITY: remaining at 30 min, 1 µM (%)

MOLECULE | EXPERIMENTAL RESULT
Cc1c(C(=O)NC(CCC2CC2)C(=O)Nc2ccc(C#N)cc2)[nH]c2c1C(=O)CC(C)(C)C2 (stereo not shown) | 42.4

###

biological target: NSD2 (T1150A) (Homo sapiens, UniProt O96028, T1150A); test: Radioisotope-based methyltransferase assay (selectivity)
QUANTITY: IC50

COMPOUND | EXPERIMENTAL RESULT
Cc1c(C(=O)NC(CCC2CC2)C(=O)Nc2ccc(C#N)cc2)[nH]c2c1C(=O)CC(C)(C)C2 (stereo not shown) | > 100 µM

###

biological target: SUV39H1 (Homo sapiens, UniProt O43463); construct: purchased Reaction Biology; assay: Radioisotope-based methyltransferase assay (selectivity); type: biochemical; conditions: SUV39H1, 1 μM SAM
Sequence (O43463 whole entry): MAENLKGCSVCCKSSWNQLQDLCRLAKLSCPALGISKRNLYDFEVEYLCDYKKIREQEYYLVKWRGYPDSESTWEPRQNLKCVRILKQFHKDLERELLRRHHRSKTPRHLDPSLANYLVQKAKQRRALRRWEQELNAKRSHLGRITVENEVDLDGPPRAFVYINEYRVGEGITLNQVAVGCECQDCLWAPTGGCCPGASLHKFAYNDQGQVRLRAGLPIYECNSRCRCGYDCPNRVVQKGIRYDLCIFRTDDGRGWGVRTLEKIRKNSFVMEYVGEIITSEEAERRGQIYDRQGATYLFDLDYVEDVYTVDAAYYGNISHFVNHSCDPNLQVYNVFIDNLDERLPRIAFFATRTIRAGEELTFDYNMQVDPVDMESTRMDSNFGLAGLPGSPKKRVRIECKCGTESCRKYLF
pIC50: −log10 of the molar value.
QUANTITY: pIC50

COMPOUND | EXPERIMENTAL RESULT
Cc1c(C(=O)NC(CCC2CC2)C(=O)Nc2ccc(C#N)cc2)[nH]c2c1C(=O)CC(C)(C)C2 (stereo not shown) | < 4.00

###

target: SETD2 (Homo sapiens); construct: purchased Reaction Biology; assay: Radioisotope-based methyltransferase assay (selectivity); format: biochemical; settings: SETD2; RK-701 in duplicate
Sequence (Q9BYW2 whole entry): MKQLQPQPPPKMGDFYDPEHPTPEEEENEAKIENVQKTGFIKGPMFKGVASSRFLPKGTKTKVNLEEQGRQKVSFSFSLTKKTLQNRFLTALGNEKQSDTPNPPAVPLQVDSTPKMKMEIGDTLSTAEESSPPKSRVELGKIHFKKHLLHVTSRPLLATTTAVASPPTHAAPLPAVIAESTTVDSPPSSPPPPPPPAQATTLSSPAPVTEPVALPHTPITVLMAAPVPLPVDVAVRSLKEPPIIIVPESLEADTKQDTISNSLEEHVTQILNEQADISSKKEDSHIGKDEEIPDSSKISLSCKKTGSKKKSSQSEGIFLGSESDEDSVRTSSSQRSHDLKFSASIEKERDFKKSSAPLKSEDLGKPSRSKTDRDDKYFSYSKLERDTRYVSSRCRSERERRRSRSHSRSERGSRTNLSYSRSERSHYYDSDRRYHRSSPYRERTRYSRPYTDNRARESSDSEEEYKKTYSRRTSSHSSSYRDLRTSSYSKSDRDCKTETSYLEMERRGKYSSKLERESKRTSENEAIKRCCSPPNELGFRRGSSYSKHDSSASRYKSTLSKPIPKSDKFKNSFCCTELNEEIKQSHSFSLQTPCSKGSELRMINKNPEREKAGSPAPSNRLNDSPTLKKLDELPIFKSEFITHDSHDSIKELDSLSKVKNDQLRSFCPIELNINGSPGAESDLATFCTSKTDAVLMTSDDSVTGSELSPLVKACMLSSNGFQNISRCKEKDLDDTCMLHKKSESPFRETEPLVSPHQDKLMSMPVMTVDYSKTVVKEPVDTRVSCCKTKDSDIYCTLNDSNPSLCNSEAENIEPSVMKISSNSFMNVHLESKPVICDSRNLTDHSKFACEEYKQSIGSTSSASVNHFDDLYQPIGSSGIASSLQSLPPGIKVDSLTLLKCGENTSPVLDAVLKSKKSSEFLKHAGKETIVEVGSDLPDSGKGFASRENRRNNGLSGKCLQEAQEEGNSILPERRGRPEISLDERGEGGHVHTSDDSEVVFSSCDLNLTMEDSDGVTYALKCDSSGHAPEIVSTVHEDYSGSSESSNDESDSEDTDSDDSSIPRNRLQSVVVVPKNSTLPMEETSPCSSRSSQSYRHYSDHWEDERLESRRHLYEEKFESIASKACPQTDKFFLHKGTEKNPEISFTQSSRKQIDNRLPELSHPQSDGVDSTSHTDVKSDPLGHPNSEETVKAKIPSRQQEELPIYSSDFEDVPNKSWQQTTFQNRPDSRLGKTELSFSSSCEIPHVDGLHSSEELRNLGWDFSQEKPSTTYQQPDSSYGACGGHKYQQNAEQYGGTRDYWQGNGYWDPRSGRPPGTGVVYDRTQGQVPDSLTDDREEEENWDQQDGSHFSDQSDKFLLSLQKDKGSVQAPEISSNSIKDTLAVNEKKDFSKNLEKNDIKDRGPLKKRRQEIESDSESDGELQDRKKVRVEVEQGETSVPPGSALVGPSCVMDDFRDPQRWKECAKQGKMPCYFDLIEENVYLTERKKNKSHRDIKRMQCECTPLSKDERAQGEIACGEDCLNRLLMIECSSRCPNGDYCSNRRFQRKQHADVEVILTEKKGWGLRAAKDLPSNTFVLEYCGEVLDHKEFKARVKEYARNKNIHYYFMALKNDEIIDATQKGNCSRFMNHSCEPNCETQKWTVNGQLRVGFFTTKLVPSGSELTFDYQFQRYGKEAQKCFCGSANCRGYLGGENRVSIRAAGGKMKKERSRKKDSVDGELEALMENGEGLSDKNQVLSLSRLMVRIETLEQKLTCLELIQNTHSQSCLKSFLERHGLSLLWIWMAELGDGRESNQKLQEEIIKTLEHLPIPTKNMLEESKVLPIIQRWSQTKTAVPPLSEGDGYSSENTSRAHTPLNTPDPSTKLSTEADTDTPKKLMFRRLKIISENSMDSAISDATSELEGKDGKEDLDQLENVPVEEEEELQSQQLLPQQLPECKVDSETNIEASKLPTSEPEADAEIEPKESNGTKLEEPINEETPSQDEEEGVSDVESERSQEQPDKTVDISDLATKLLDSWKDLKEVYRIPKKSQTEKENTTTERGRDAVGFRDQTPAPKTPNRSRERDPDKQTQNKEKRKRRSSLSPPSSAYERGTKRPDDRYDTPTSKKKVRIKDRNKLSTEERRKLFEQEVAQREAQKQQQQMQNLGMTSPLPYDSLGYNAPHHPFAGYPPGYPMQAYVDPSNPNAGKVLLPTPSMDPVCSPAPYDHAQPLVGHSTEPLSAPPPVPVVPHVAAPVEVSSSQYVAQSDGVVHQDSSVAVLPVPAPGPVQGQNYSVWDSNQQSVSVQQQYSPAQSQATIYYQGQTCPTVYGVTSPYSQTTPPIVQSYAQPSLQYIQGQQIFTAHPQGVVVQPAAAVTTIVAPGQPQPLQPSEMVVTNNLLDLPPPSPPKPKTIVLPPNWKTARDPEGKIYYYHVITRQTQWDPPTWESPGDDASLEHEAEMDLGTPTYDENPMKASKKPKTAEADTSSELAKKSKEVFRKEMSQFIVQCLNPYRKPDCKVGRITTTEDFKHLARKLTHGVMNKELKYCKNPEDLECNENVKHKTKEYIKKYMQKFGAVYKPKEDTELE
pIC50: −log10 of the molar value.
QUANTITY: pIC50

COMPOUND | RELATION SIGN | EXPERIMENTAL RESULT
Cc1c(C(=O)NC(CCC2CC2)C(=O)Nc2ccc(C#N)cc2)[nH]c2c1C(=O)CC(C)(C)C2 (centres unmarked) | < | 4.00
Nc1ncnc2c1ncn2[C@@H]1O[C@H](CSCC[C@H](N)C(=O)O)[C@@H](O)[C@H]1O [SAH, S-(5'-Adenosyl)-L-homocysteine, reference compound] | = | 5.27

###

biological target: SET1b (Homo sapiens, UniProt Q9UPS6); construct: purchased Reaction Biology; test: Radioisotope-based methyltransferase assay (selectivity); assay type: biochemical; settings: RK-701 in duplicate
pIC50: −log10 of the molar value.

COMPOUND | TARGET ENTITY | pIC50
Nc1ncnc2c1ncn2[C@@H]1O[C@H](CSCC[C@H](N)C(=O)O)[C@@H](O)[C@H]1O [SAH, S-(5'-Adenosyl)-L-homocysteine, reference compound] | SET1b (Homo sapiens, UniProt Q9UPS6) | 5.28

###

experiment: Liver microsomal stability assay, monkey; type: in vitro ADME; settings: monkey, liver microsomes, Metabolic stability, % remaining of RK-701, Monkey; Time 5; replicate values

COMPOUND | remaining at 5 min, 1 µM (%)
Cc1c(C(=O)NC(CCC2CC2)C(=O)Nc2ccc(C#N)cc2)[nH]c2c1C(=O)CC(C)(C)C2 (stereo not shown) [RK-701] | 106

###

Biological target: NSD2 (E1099K) (Homo sapiens, UniProt O96028, E1099K)
Sequence (O96028 1-1365 E1099K): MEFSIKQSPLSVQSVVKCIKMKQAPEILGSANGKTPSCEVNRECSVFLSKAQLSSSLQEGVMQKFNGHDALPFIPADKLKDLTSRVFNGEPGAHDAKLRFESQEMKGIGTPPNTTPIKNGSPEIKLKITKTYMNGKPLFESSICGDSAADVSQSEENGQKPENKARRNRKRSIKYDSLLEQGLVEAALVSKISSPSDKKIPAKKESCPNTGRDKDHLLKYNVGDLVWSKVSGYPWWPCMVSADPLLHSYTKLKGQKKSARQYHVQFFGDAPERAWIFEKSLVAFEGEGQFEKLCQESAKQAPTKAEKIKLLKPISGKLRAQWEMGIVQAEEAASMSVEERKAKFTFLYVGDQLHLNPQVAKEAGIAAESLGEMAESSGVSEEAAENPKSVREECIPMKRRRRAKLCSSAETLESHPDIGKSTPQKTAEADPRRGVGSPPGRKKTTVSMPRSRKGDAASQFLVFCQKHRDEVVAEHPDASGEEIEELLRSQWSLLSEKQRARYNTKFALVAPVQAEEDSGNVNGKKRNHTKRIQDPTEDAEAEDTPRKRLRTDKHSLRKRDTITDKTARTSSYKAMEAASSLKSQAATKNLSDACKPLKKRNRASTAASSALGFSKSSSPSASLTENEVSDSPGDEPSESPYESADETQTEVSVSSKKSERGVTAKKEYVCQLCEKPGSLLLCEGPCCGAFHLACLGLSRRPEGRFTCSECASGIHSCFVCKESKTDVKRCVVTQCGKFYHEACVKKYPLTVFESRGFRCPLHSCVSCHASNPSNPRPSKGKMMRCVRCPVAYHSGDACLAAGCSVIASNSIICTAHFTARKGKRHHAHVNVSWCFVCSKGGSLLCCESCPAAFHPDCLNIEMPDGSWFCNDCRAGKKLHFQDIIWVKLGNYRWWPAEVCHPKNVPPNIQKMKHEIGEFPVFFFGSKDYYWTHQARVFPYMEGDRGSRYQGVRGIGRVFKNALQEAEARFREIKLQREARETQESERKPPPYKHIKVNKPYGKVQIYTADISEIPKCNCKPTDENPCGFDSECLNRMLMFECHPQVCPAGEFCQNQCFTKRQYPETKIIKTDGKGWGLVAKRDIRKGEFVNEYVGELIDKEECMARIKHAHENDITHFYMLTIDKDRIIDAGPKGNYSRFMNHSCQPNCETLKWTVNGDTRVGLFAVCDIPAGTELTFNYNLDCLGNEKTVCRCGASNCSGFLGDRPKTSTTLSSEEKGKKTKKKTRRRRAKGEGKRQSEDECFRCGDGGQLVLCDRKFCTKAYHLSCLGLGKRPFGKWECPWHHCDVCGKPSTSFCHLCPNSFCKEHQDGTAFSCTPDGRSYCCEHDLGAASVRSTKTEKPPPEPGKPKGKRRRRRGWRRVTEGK
Assay: Radioisotope-based methyltransferase assay (selectivity)

COMPOUND | IC50
Cc1c(C(=O)NC(CCC2CC2)C(=O)Nc2ccc(C#N)cc2)[nH]c2c1C(=O)CC(C)(C)C2 (stereo not shown) | > 100 µM

###

biological target: MLL4; assay: Radioisotope-based methyltransferase assay (selectivity); details: MLL4, 1 μM SAM

COMPOUND | TARGET ENTITY | IC50
Cc1c(C(=O)NC(CCC2CC2)C(=O)Nc2ccc(C#N)cc2)[nH]c2c1C(=O)CC(C)(C)C2 (stereo not shown) | MLL4 | > 100 µM

###

assay: Liver microsomal stability assay, dog; type: in vitro ADME; conditions: dog, liver microsomes, Metabolic stability, % remaining of RK-701, Dog; Time 10; replicate values
QUANTITY: remaining at 10 min, 1 µM (%)

COMPOUND | EXPERIMENTAL RESULT
Cc1c(C(=O)NC(CCC2CC2)C(=O)Nc2ccc(C#N)cc2)[nH]c2c1C(=O)CC(C)(C)C2 (stereo not shown) | 57

###

target: SETD2 (Homo sapiens); construct: purchased Reaction Biology; assay: Radioisotope-based methyltransferase assay (selectivity); assay type: biochemical; settings: SETD2, 1 μM SAM
pIC50: −log10 of the molar value.
QUANTITY: pIC50

COMPOUND | RELATION SIGN | EXPERIMENTAL RESULT
Cc1c(C(=O)NC(CCC2CC2)C(=O)Nc2ccc(C#N)cc2)[nH]c2c1C(=O)CC(C)(C)C2 (centres unmarked) | < | 4.00
Nc1ncnc2c1ncn2[C@@H]1O[C@H](CSCC[C@H](N)C(=O)O)[C@@H](O)[C@H]1O [SAH, S-(5'-Adenosyl)-L-homocysteine, reference compound] | = | 5.28

###

assay: Caco-2 permeability assay; type: in vitro ADME; conditions: human, Caco-2, Basal to Apical; read-out: Caco-2 permeability Papp B to A

COMPOUND | Papp B→A, ×10⁻⁶ cm/s
Cc1c(C(=O)NC(CCC2CC2)C(=O)Nc2ccc(C#N)cc2)[nH]c2c1C(=O)CC(C)(C)C2 (stereo not shown) | 18.9

###

target: EZH2 (Homo sapiens); assay: biochemical
pIC50: −log10 of the molar value.

COMPOUND | pIC50
Cc1c(C(=O)NC(CCC2CC2)C(=O)Nc2ccc(C#N)cc2)[nH]c2c1C(=O)CC(C)(C)C2 (stereo not shown) | < 4.00

###

target: PRMT6 (Homo sapiens, UniProt Q96LA8)
Sequence (Q96LA8 whole entry): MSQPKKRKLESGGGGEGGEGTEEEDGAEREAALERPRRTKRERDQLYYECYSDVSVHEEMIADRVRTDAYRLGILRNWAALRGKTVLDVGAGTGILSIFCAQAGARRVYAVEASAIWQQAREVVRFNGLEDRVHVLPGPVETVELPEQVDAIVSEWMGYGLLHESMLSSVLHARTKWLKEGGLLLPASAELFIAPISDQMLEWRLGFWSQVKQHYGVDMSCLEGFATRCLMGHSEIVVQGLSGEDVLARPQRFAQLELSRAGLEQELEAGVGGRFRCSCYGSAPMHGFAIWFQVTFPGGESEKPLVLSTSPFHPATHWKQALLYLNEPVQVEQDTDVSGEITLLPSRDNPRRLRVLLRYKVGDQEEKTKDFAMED
pIC50: −log10 of the molar value.
QUANTITY: pIC50

MOLECULE | EXPERIMENTAL RESULT
Cc1c(C(=O)NC(CCC2CC2)C(=O)Nc2ccc(C#N)cc2)[nH]c2c1C(=O)CC(C)(C)C2 (stereo not shown) | < 4.00
